system: MDA-MB-231 breast; test: NCI tumour cell line growth inhibition, 48 h
Exercise: state measured TGI for each of the compounds provided.

Please review the following examples before continuing.
CCOC(=O)CSc1[nH]c2nc(C)nc(Cl)c2c1C#N    > 10 µM
CCOC(=O)c1c(Nc2ccccc2)sc2cccnc12    > 83.5 µM
COc1ccc(-c2cn3c(nc4ccccc43)c(C)n2)cc1    > 100 µM
Clc1ccc(NCc2nnc(COc3ccc(OCc4nnc(CNc5ccc(Cl)cc5)o4)c(Cl)c3)o2)cc1    63.3 µM
Oc1c(Cl)ccc2cccnc12    > 100 µM
COc1cc(C2=Nc3c/c(=C\c4c(O)[nH]c5ccc(Cl)cc45)ccc3=N2)cc(OC)c1OC    6.26 µM
Cc1cc(N2CCOCC2)nc(N(CCNc2ccnc3cc(Cl)ccc23)Cc2ccco2)n1    13.4 µM
O=[n+]1cnn([O-])c2ccccc21    31 µM

Record TGI for all entries; do not skip any.
1. CN(C)c1cc2c(Nc3ccc4nc(Cc5ccccc5)[nH]c4c3)ncnc2cn1
2. CCOC(=O)CCC(NC(=O)N1CCN(c2c(C)nc(C)[nH]c2=O)CC1)C(=O)OCC (configuration not stated)
3. CN(C)C/C=C(/c1ccc(Br)cc1)c1cccnc1
4. NCCCCN

1: > 25 µM; 2: > 100 µM; 3: > 100 µM; 4: > 100 µM
